# system: human GPR119 (Homo sapiens (Human))
# Sequence (Q8TDV5 whole entry): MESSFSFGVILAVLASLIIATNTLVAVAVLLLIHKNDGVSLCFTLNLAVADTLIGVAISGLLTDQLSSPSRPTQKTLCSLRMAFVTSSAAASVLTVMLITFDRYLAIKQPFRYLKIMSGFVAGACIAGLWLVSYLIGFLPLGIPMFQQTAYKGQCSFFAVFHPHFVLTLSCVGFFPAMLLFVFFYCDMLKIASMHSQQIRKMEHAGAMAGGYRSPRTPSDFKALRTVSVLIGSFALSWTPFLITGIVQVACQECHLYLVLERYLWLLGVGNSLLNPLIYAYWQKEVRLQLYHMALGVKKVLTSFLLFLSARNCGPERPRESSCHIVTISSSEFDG
# protocol.description: AlphaScreen cAMP assay in Min-6/hGPR119 cells (GPR119 activation, intracellular cAMP)
# experimental.conditions: MIN6 cells stably transfected with human GPR119; 45 minutes' incubation at RT; AlphaScreen cAMP Assay Kit
Catalogue of molecules with associated EC50
property: EC50 (nM)

molecule="CCC1CC(=O)NN=C1c1ccc2nc(-c3ccc(OCc4ccc(S(C)(=O)=O)cc4)cc3)oc2c1 (centres unmarked) [Example 158]" readout_unit=nM recorded_measurement=1960
molecule="CCC1CC(=O)NN=C1c1ccc2nc(-c3ccc(OCC(C)(C)N4CCOCC4)cc3)oc2c1 (centres unmarked) [Example 232]" readout_unit=nM recorded_measurement=69
molecule="CC[C@H]1CC(=O)NN=C1c1ccc2nc(-c3ccc(OCC(C)N4CCCCC4)cc3)oc2c1 (some centres unmarked) [Example 236]" readout_unit=nM recorded_measurement=1100
molecule="C[C@H]1CC(=O)NN=C1c1ccc2nc(-c3ccccc3)oc2c1 [Example 1]" readout_unit=nM recorded_measurement=660
molecule="Cc1cccc(-c2nc3ccc(C4=NNC(=O)C5CC45)cc3o2)c1 (centres unmarked) [Example 12]" readout_unit=nM recorded_measurement=246
molecule="CCC1CC(=O)NN=C1c1ccc2nc(-c3ccc(OCCN(C)C(C)C)cc3)oc2c1 (centres unmarked) [Example 219]" readout_unit=nM recorded_measurement=438
molecule="CC[C@H]1OC(=O)NN=C1N1CCc2nc(-c3ccccc3)oc2C1 [Example 206]" readout_unit=nM recorded_measurement=27
molecule="CCC1CC(=O)NN=C1c1ccc2nc(-c3ccc(OCCN(CC(C)C)CC(C)C)cc3)oc2c1 (centres unmarked) [Example 160]" readout_unit=nM recorded_measurement=124
molecule="CCC1CC(=O)NN=C1c1ccc2nc(-c3ccc(OCCN4CC(C)OC(C)C4)cc3)oc2c1 (centres unmarked) [Example 220]" readout_unit=nM recorded_measurement=84
molecule="CC1CC(=O)NN=C1c1ccc2nc(-c3cccc(CN)c3)oc2c1 (centres unmarked) [Example 125]" readout_unit=nM recorded_measurement=1600
molecule="CCCC[C@@H]1C(=O)NN=C(c2ccc3nc(-c4ccccc4)oc3c2)[C@H]1C (relative stereo) [Example 197]" readout_unit=nM recorded_measurement=1110
molecule="Cc1cc(=O)[nH]nc1-c1ccc2nc(-c3cccs3)oc2c1 [Example 256]" readout_unit=nM recorded_measurement=9380
molecule="CCC1CC(=O)NN=C1c1ccc2nc(-c3ccc(OCc4ccncc4)cc3)oc2c1 (centres unmarked) [Example 46]" readout_unit=nM recorded_measurement=345
molecule="CC1CC(=O)NN=C1c1ccc2nc(-c3cccs3)oc2c1 (centres unmarked) [Example 106]" readout_unit=nM recorded_measurement=120
molecule="CC(C)(C)OC(=O)N1CCN(Cc2ccc(-c3nc4ccc(C5=NNC(=O)C6CC56)cc4o3)cc2)CC1 (centres unmarked) [Example 23]" readout_unit=nM recorded_measurement=1350
molecule="CCC1CC(=O)NN=C1c1ccc2nc(-c3ccc(OCC(C)O)cc3)oc2c1 (centres unmarked) [Example 211]" readout_unit=nM recorded_measurement=395
molecule="CCC[C@H]1C(=O)NN=C(c2ccc3nc(-c4ccccc4)oc3c2)[C@@H]1C [Example 196]" readout_unit=nM recorded_measurement=39

----------
property: melting point (°C)

compound="CC1CC(=O)NN=C1c1ccc2nc(N3CCNCC3)oc2c1 (centres unmarked) [Example 117]" property="melting point" recorded_measurement=213
compound="CC1CC(=O)NN=C1c1ccc2nc(-c3ccco3)oc2c1 (centres unmarked) [Example 108]" property="melting point" recorded_measurement=209
compound="CC1CC(=O)NN=C1c1ccc2nc(N3CCSCC3)oc2c1 (centres unmarked) [Example 113]" property="melting point" recorded_measurement=218
compound="CC1CC(=O)NN=C1c1ccc2nc(-c3cccs3)oc2c1 (centres unmarked) [Example 106]" property="melting point" recorded_measurement=222
compound="CC1CC(=O)NN=C1c1ccc2nc(-c3ccc(Cl)nc3Cl)oc2c1 (centres unmarked) [Example 120]" property="melting point" recorded_measurement=268
compound="CC1CC(=O)NN=C1c1ccc2nc(-c3ccc(N)nc3)oc2c1 (centres unmarked) [Example 109]" property="melting point" recorded_measurement=293
compound="CC1CC(=O)NN=C1c1ccc2nc(-c3ccc(N4CCOCC4)nc3Cl)oc2c1 (centres unmarked) [Example 121]" property="melting point" recorded_measurement=236
compound="CCOC(=O)N1CCN(c2nc3ccc(C4=NNC(=O)CC4C)cc3o2)CC1 (centres unmarked) [Example 114]" property="melting point" recorded_measurement=239
compound="CC1CC(=O)NN=C1c1ccc2nc(N3CCOCC3)oc2c1 (centres unmarked) [Example 116]" property="melting point" recorded_measurement=209
compound="CC1CC(=O)NN=C1c1ccc2nc(-c3cccnc3)oc2c1 (centres unmarked) [Example 110]" property="melting point" recorded_measurement=218
compound="CC1CC(=O)NN=C1c1ccc2nc(N3CCCCC3)oc2c1 (centres unmarked) [Example 115]" property="melting point" recorded_measurement=235
